Data provenance: patent US10059701B2

Assay target: IRAK1 (Homo sapiens)
Construct: His-TEV-IRAK1 (194-712); His (N); TEV cleavage site (N)
Sequence (P51617 194-712): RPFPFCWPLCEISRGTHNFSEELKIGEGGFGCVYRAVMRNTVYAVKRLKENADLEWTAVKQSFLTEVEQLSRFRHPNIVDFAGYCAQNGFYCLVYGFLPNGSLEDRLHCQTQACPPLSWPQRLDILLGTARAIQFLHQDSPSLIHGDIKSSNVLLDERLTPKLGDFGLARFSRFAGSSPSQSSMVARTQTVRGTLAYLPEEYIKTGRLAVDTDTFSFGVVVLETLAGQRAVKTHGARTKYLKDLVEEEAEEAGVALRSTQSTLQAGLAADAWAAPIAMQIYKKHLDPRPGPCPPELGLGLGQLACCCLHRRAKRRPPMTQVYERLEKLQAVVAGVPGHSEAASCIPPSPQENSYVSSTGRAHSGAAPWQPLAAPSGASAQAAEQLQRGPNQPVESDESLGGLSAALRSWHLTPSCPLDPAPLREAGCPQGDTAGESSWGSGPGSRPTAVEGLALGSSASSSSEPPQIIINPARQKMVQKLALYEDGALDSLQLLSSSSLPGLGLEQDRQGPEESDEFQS
Assay info: IRAK1 enzymatic assay (ADP-Glo luminescence)
Setup conditions: purified human recombinant His-TEV-IRAK1 (194-712)
pIC50: −log10 of the molar value.
Result type: pIC50

Identify the measured pIC50 of CSCCCn1/c(=N/C(=O)c2cccc(C(F)F)c2)[nH]c2cc(N3CCOCC3=O)ccc21 for IRAK1 (Homo sapiens).
6.00 to 7.00

Lab note: need pIC50 for O=C(/N=c1\[nH]c2cc(N3CCOC3=O)ccc2n1CCCO)c1cccc(C(F)(F)F)c1 on IRAK1 (Homo sapiens), anyone have it?
6.00 to 7.00

# returns recorded pIC50 (system: IRAK1 (Homo sapiens)) for O=C(/N=c1\[nH]c2cc(N3CCCOC3=O)ccc2n1C1CC1)c1cccc(C(F)(F)F)c1
< 6.00

Recall the recorded pIC50 for O=C(/N=c1\[nH]c2cc(N3CCCOC3=O)ccc2n1CC(F)CO)c1cccc(C(F)(F)F)c1 (stereo not shown) with IRAK1 (Homo sapiens) and state it.
≥ 7.00

Missing value: pIC50, IRAK1 (Homo sapiens), entry CSCCCCn1/c(=N/C(=O)c2cccc(C(F)F)c2)[nH]c2cc(N3CCOCC3=O)ccc21 . Fill in?
< 6.00

Which measured pIC50 belongs to O=C(/N=c1\[nH]c2cc(N3CCOCC3=O)ccc2n1CCCO)c1cccnc1 , tested on IRAK1 (Homo sapiens)?
6.00 to 7.00

Under IRAK1 (Homo sapiens): pIC50 value of O=C(/N=c1\[nH]c2cc(-n3ccccc3=O)ccc2n1CCCO)c1cccc(C(F)F)c1 ?
6.00 to 7.00

Record O=C(/N=c1\[nH]c2cc(N3CCOCC3=O)ccc2n1C1CCCC(CO)C1)c1cccc(C(F)(F)F)c1 (stereo not shown) : what is its pIC50 with IRAK1 (Homo sapiens)?
6.00 to 7.00

Entry COc1cc2c(cc1N1CCCOC1=O)[nH]/c(=N\C(=O)c1cccc(C(F)(F)F)c1)n2CCCO , system IRAK1 (Homo sapiens): what pIC50 was measured?
≥ 7.00

Short answer please: pIC50, IRAK1 (Homo sapiens), entry O=C(/N=c1\[nH]c2cc(N3CCCOC3=O)ccc2n1C1CCCC1)c1cccc(C(F)(F)F)c1
< 6.00

# returns recorded pIC50 (system: IRAK1 (Homo sapiens)) for O=C(/N=c1\[nH]c2cc(N3CCOCC3=O)cc(F)c2n1CCCO)c1cccc(C(F)(F)F)c1
6.00 to 7.00

Lab note: need pIC50 with IRAK1 (Homo sapiens) for entry O=C(/N=c1\[nH]c2cc(N3CCCOCC3=O)ccc2n1CCCO)c1cccc(C(F)F)c1 , please look it up.
≥ 7.00

Hi! What's the reported pIC50 for O=C(/N=c1\[nH]c2cc(N3C(=O)COCC34CC4)ccc2n1CCCO)c1cccc(C(F)(F)F)c1 on IRAK1 (Homo sapiens)?
≥ 7.00

IRAK1 (Homo sapiens) / pIC50 / O=C(/N=c1\[nH]c2cc(N3C(=O)CN(C4CC4)CC34CC4)ccc2n1CCCO)c1cccc(C(F)(F)F)c1 : value?
≥ 7.00

Observed pIC50 on IRAK1 (Homo sapiens) for N#Cc1cccc(C(=O)/N=c2\[nH]c3cc(N4CCCOC4=O)ccc3n2CC2(F)CCOCC2)c1 , please.
6.00 to 7.00

Observed pIC50 on IRAK1 (Homo sapiens) for O=C(/C=C1\Nc2cc(N3CCOCC3=O)ccc2N1CCCO)c1ccc2ccccc2n1 , please.
< 6.00
